test system: B16-F1 mouse melanoma cells; test: Cytotoxicity, resazurin metabolism assay, B16-F1; type: cell-based; conditions: 48 h, mean ± SD
Quantity kind: IC50

C=C(C)[C@@H]1CC[C@]2(COC(C)=O)CC[C@]3(C)[C@H](CC[C@@H]4[C@@]5(C)CC[C@H](OC(C)=O)C(C)(C)[C@@H]5CC[C@]43C)[C@@H]12 has a reported IC50 of > 95 µM

For C=C(C)[C@@H]1CC[C@]2(CO)CC[C@]3(C)[C@H](CC[C@@H]4[C@@]5(C)CC[C@H](OC(C)=O)C(C)(C)[C@@H]5CC[C@]43C)[C@@H]12 the compound record lists IC50 as > 253 µM

Lab note: C=C(C)[C@@H]1CC[C@]2(CO[C@@H]3O[C@H](CO)[C@@H](O)[C@H](O)[C@H]3O)CC[C@]3(C)[C@H](CC[C@@H]4[C@@]5(C)CC[C@H](O)C(C)(C)[C@@H]5CC[C@]43C)[C@@H]12 [Compound 15, 28-O-β-D-Glucopyranoside of Betulin] gave IC50 of > 248 µM

----------
tested on: B16-F1 mouse melanoma cells; assay: Cytotoxicity, resazurin metabolism assay, B16-F1; format: cell-based; settings: 48 h, mean ± SD
Record form. Attribute: IC50. Fill in for each entry.

Entry C=CCOC(=O)C12CCC(C(=C)C)C1C1CCC3C4(C)CCC(O)C(C)(C)C4CCC3(C)C1(C)CC2 (stereo not shown) [Compound 8, Allyl betulinate] ; IC50 = > 225 µM

The reported IC50 of the compound C=C(C)[C@@H]1CC[C@]2(C)CC[C@]3(C)[C@H](CC[C@@H]4[C@@]5(C)CC[C@H](O[C@@H]6O[C@@H](C)[C@H](O)[C@@H](O)[C@H]6O)C(C)(C)[C@@H]5CC[C@]43C)[C@@H]12 [Compound 10, 3-O-α-L-Rhamnopyranoside of lupeol] was > 178 µM

GET /value?item= C=C(C)C1CCC2(COC3OC(C)C(O)C(O)C3O)CCC3(C)C(CCC4C5(C)CCC(O)C(C)(C)C5CCC43C)C12 [Compound 16, 28-O-α-L-Rhamnopyranoside of Betulin] &field=IC50 returns > 228 µM

Looking up C=C(C)[C@@H]1CC[C@]2(CO)CC[C@]3(C)[C@H](CC[C@@H]4[C@@]5(C)CC[C@H](O[C@@H]6O[C@H](CO)[C@@H](O)[C@H](O)[C@H]6O)C(C)(C)[C@@H]5CC[C@]43C)[C@@H]12 [Compound 12, 3-O-β-D-Glucopyranoside of Betulin] , I found its IC50 recorded as > 200 µM
